// data source = the supplement of paper PMC12350171

Test system: Salmonella enterica typhimurium
Assay: growth AUC normalised to DMSO control (fraction of control); higher = less growth inhibition, active = hit call of the paper;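 active = AUC significantly below DMSO controls by Student t-fit with adjusted P under 0.01; inactive = not significantly reduced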
Settings: 20 µM
Structures can show the parent of a compound that is named as a salt.
Possible outcomes: active, inactive

molecule	system	assigned_category
CCCNC(=O)NS(=O)(=O)c1ccc(Cl)cc1 [Chlorpropamide]	Salmonella enterica typhimurium	inactive
CN(C)C(=O)C(CCN1CCC(O)(c2ccc(Cl)cc2)CC1)(c1ccccc1)c1ccccc1 [Loperamide hydrochloride]	Salmonella enterica typhimurium	inactive
O=C(N/N=C/c1ccc([N+](=O)[O-])o1)c1ccc(O)cc1 [Nifuroxazide]	Salmonella enterica typhimurium	active
CNC(=C[N+](=O)[O-])NCCSCc1csc(CN(C)C)n1	Salmonella enterica typhimurium	inactive
O=C(Nc1cccc2c(=O)cc(-c3nnn[nH]3)oc12)c1ccc(OCCCCc2ccccc2)cc1	Salmonella enterica typhimurium	inactive
CCCCC1(COC(=O)CCC(=O)O)C(=O)N(c2ccccc2)N(c2ccccc2)C1=O	Salmonella enterica typhimurium	inactive
CC(C)NCC(O)c1ccc(NS(C)(=O)=O)cc1 (centres undefined) [Sotalol hydrochloride]	Salmonella enterica typhimurium	inactive
CNC[C@H](O)[C@@H](O)[C@H](O)[C@H](O)CO	Salmonella enterica typhimurium	inactive
NS(=O)(=O)c1cc2c(cc1Cl)N=C(CSCc1ccccc1)NS2(=O)=O [Benzthiazide]	Salmonella enterica typhimurium	inactive
